- measurement.target: T1, recombinant mouse NKG2D-Fc (mouse; human, UniProt O54709 90-232)
- T1 construct: extracellular domain; also called mouse NKG2D-Fc fusion protein; Mouse NKG2D-Fc-biotin; not shown: human IgG1 Fc domain
- T1 sequence (looked up): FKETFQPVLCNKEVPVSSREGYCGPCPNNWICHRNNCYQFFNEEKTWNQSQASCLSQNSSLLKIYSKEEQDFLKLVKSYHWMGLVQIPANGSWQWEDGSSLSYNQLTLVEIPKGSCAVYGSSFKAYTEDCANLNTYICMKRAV
- experiment.summary: ELISA, NKG2D-Fc coated

{"columns": ["binder", "binding result"],
 "data": [
  ["ADI-29447 (antibody, V domains shown, also called F47) VH: QVQLQQWGAGLLKPSETLSLTCAVYGGSFSGYYWSWIRQPPGKGLEWIGEIDHSGSTNYNPSLKSRVTISVDTSKNQFSLKLSSVTAADTAVYYCARARGPWSFDPWGQGTLVTVSS VL: DIQMTQSPSTLSASVGDRVTITCRASQSISSWLAWYQQKPGKAPKLLIYKASSLESGVPSRFSGSGSGTEFTLTISSLQPDDFATYYCQQYDTFITFGGGTKVEIK", "binds"],
  ["ADI-29401 (antibody, V domains shown) VH: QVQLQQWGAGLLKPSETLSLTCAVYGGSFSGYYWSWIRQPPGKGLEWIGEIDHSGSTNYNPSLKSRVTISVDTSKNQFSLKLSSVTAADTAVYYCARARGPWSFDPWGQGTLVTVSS VL: DIQMTQSPSTLSASVGDRVTITCRASQSIGSWLAWYQQKPGKAPKLLIYKASSLESGVPSRFSGSGSGTEFTLTISSLQPDDFATYYCQQYDIYPTFGGGTKVEIK", "binds"]
]}

This collection of values is drawn from patent US20200165344A1.
